Assay: Plasma cholesterol and triglyceride levels in huCETP transgenic mice (Example 5)
Type: in vivo
Settings: plasma, 50 mg/kg i.p. twice per week, week 6
e = 2'-O-(2-methoxyethyl) (MOE); d = 2'-deoxy (DNA)
HDL for assorted substances

| SUBSTANCE | HDL (mg/dL) |
| --- | --- |
| ISIS 349511: 5-10-5 MOE gapmer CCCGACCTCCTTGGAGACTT (sugars from the 5' end e5 d10 e5, backbone and methylation of C not given here) | 66 |
| ISIS 349515: 5-10-5 MOE gapmer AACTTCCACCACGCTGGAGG (sugars from the 5' end e5 d10 e5, backbone and methylation of C not given here) | 66 |
| ISIS 349517: 5-10-5 MOE gapmer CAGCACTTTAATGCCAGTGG (sugars from the 5' end e5 d10 e5, backbone and methylation of C not given here) | 55 |
| ISIS 349512: 5-10-5 MOE gapmer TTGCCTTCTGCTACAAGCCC (sugars from the 5' end e5 d10 e5, backbone and methylation of C not given here) | 100 |

----------
Percent inhibition of human CETP mRNA for assorted substances
Tested on: human CETP mRNA
Assay: Antisense inhibition of human CETP mRNA in primary hepatocytes from huCETP transgenic mice (Example 4)
Assay type: cell-based, mouse
Conditions: 100 nM, cytofectin, ~24 hours
Strand notation (5' to 3'): a small letter for the sugar, then the base; units joined by * are phosphorothioate-linked, units joined directly phosphodiester-linked; [ ] holds rarer units or linkages, { } end groups; capitals alone tell only the bases. e = 2'-O-(2-methoxyethyl) (MOE); [5mC] = 5-methylcytosine; d = 2'-deoxy (DNA)
OBSERVATION TYPE: Percent inhibition of human CETP mRNA (%)

| SUBSTANCE | OBSERVATION TYPE | UNITS TEXT | MEASURED |
| --- | --- | --- | --- |
| ISIS 349499: 5-10-5 MOE gapmer CCAAGAGGCTTAAGAAGAGC (e[5mC]*e[5mC]*eA*eA*eG*dA*dG*dG*d[5mC]*dT*dT*dA*dA*dG*dA*eA*eG*eA*eG*e[5mC]) | Percent inhibition of human CETP mRNA | % | 80 |
| ISIS 349467: 5-10-5 MOE gapmer GTGGTGTAGCCATACTTCAG (eG*eT*eG*eG*eT*dG*dT*dA*dG*d[5mC]*d[5mC]*dA*dT*dA*d[5mC]*eT*eT*e[5mC]*eA*eG) | Percent inhibition of human CETP mRNA | % | 57 |
| ISIS 349471: 5-10-5 MOE gapmer GTCAGCTGTGTGTTGATCTG (eG*eT*e[5mC]*eA*eG*d[5mC]*dT*dG*dT*dG*dT*dG*dT*dT*dG*eA*eT*e[5mC]*eT*eG) | Percent inhibition of human CETP mRNA | % | 70 |
| ISIS 349475: 5-10-5 MOE gapmer GCTTGATCCACCCAGGCTCT (eG*e[5mC]*eT*eT*eG*dA*dT*d[5mC]*d[5mC]*dA*d[5mC]*d[5mC]*d[5mC]*dA*dG*eG*e[5mC]*eT*e[5mC]*eT) | Percent inhibition of human CETP mRNA | % | 0 |
| ISIS 349480: 5-10-5 MOE gapmer TGTCTCCATCTGAAAGGATG (eT*eG*eT*e[5mC]*eT*d[5mC]*d[5mC]*dA*dT*d[5mC]*dT*dG*dA*dA*dA*eG*eG*eA*eT*eG) | Percent inhibition of human CETP mRNA | % | 46 |

----------
Experiment: Body and organ weights of huCETP transgenic mice (Example 5)
Format: in vivo
Settings: 50 mg/kg i.p. twice per week, Week 2
Protocol: The mice were divided into five treatment groups. The first four groups received intraperitoneal injections of ISIS 349511, ISIS 349512, ISIS 349515, or ISIS 349517 at a dose of 50 mg/kg twice per week for 6 weeks. The fifth group received intraperitoneal injections of saline twice weekly for 6 weeks. The body weights of the mice were measured pre-dose and regularly during the treatment period. The body weights are presented in Table 10, and are expressed in grams.
e = 2'-O-(2-methoxyethyl) (MOE); d = 2'-deoxy (DNA)
OBSERVATION TYPE: Body weights

| SUBSTANCE | MEASURED |
| --- | --- |
| ISIS 349511: 5-10-5 MOE gapmer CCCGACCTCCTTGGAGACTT (sugars from the 5' end e5 d10 e5, backbone and methylation of C not given here) | 23 grams |
| ISIS 349515: 5-10-5 MOE gapmer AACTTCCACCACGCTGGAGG (sugars from the 5' end e5 d10 e5, backbone and methylation of C not given here) | 27 grams |
| ISIS 349512: 5-10-5 MOE gapmer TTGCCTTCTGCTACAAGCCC (sugars from the 5' end e5 d10 e5, backbone and methylation of C not given here) | 24 grams |
| ISIS 349517: 5-10-5 MOE gapmer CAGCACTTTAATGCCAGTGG (sugars from the 5' end e5 d10 e5, backbone and methylation of C not given here) | 28 grams |

----------
% inhibition for assorted substances
System: human CETP mRNA
Assay: Antisense inhibition of human CETP mRNA in SW872 liposarcoma cells (Example 1)
Format: cell-based
Conditions: 150 nM antisense oligonucleotide, lipofectin, ~24 hours, relative to untreated control cells
Strand notation (5' to 3'): a small letter for the sugar, then the base; units joined by * are phosphorothioate-linked, units joined directly phosphodiester-linked; [ ] holds rarer units or linkages, { } end groups; capitals alone tell only the bases. e = 2'-O-(2-methoxyethyl) (MOE); [5mC] = 5-methylcytosine; d = 2'-deoxy (DNA)

| SUBSTANCE | UNITS TEXT | % inhibition |
| --- | --- | --- |
| ISIS 349452: 5-10-5 MOE gapmer CAGGACTGTGGCAGCCAGCA (e[5mC]*eA*eG*eG*eA*d[5mC]*dT*dG*dT*dG*dG*d[5mC]*dA*dG*d[5mC]*e[5mC]*eA*eG*e[5mC]*eA) | % | 75 |
| ISIS 349469: 5-10-5 MOE gapmer TCTCGAAGTCAATGGACTGA (eT*e[5mC]*eT*e[5mC]*eG*dA*dA*dG*dT*d[5mC]*dA*dA*dT*dG*dG*eA*e[5mC]*eT*eG*eA) | % | 70 |
| ISIS 349463: 5-10-5 MOE gapmer CTGCTGGCGATGGACAAGTG (e[5mC]*eT*eG*e[5mC]*eT*dG*dG*d[5mC]*dG*dA*dT*dG*dG*dA*d[5mC]*eA*eA*eG*eT*eG) | % | 77 |
| ISIS 349482: 5-10-5 MOE gapmer TGAAATGACCCTTGTGATGG (eT*eG*eA*eA*eA*dT*dG*dA*d[5mC]*d[5mC]*d[5mC]*dT*dT*dG*dT*eG*eA*eT*eG*eG) | % | 51 |
| ISIS 349493: 5-10-5 MOE gapmer TGTTTTGGCAGGAGATCTTG (eT*eG*eT*eT*eT*dT*dG*dG*d[5mC]*dA*dG*dG*dA*dG*dA*eT*e[5mC]*eT*eT*eG) | % | 67 |

----------
Experiment: Body and organ weights of huCETP transgenic mice (Example 5)
Assay type: in vivo
Settings: 50 mg/kg i.p. twice per week, Week 1
e = 2'-O-(2-methoxyethyl) (MOE); d = 2'-deoxy (DNA)
Body weights for assorted substances
OBSERVATION TYPE: Body weights

| SUBSTANCE | OBSERVATION TYPE | MEASURED |
| --- | --- | --- |
| ISIS 349511: 5-10-5 MOE gapmer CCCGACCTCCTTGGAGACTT (sugars from the 5' end e5 d10 e5, backbone and methylation of C not given here) | Body weights | 21 grams |
| ISIS 349515: 5-10-5 MOE gapmer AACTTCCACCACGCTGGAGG (sugars from the 5' end e5 d10 e5, backbone and methylation of C not given here) | Body weights | 26 grams |
| ISIS 349512: 5-10-5 MOE gapmer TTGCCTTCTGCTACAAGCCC (sugars from the 5' end e5 d10 e5, backbone and methylation of C not given here) | Body weights | 21 grams |
| ISIS 349517: 5-10-5 MOE gapmer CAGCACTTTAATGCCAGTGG (sugars from the 5' end e5 d10 e5, backbone and methylation of C not given here) | Body weights | 27 grams |

----------
Test system: human CETP mRNA
Test: Antisense inhibition of human CETP mRNA in primary hepatocytes from huCETP transgenic mice (Example 4)
Assay type: cell-based, mouse
Settings: 100 nM, cytofectin, ~24 hours
Strand notation (5' to 3'): a small letter for the sugar, then the base; units joined by * are phosphorothioate-linked, units joined directly phosphodiester-linked; [ ] holds rarer units or linkages, { } end groups; capitals alone tell only the bases. e = 2'-O-(2-methoxyethyl) (MOE); [5mC] = 5-methylcytosine; d = 2'-deoxy (DNA)
Rule: Percent inhibition of human CETP mRNA of 60% or more gives true; anything lower gives false.

| SUBSTANCE | CAT |
| --- | --- |
| ISIS 349447: 5-10-5 MOE gapmer TATGTATGTCCGCCCAGCCC (eT*eA*eT*eG*eT*dA*dT*dG*dT*d[5mC]*d[5mC]*dG*d[5mC]*d[5mC]*d[5mC]*eA*eG*e[5mC]*e[5mC]*e[5mC]) | false |
| ISIS 349472: 5-10-5 MOE gapmer GCACTCTACCAGAGTCACAG (eG*e[5mC]*eA*e[5mC]*eT*d[5mC]*dT*dA*d[5mC]*d[5mC]*dA*dG*dA*dG*dT*e[5mC]*eA*e[5mC]*eA*eG) | false |
| ISIS 349515: 5-10-5 MOE gapmer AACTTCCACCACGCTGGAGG (sugars from the 5' end e5 d10 e5, backbone and methylation of C not given here) | true |
| ISIS 349504: 5-10-5 MOE gapmer TGACCTCAGGGATGCCCACA (eT*eG*eA*e[5mC]*e[5mC]*dT*d[5mC]*dA*dG*dG*dG*dA*dT*dG*d[5mC]*e[5mC]*e[5mC]*eA*e[5mC]*eA) | true |
| ISIS 349469: 5-10-5 MOE gapmer TCTCGAAGTCAATGGACTGA (eT*e[5mC]*eT*e[5mC]*eG*dA*dA*dG*dT*d[5mC]*dA*dA*dT*dG*dG*eA*e[5mC]*eT*eG*eA) | false |
| ISIS 349464: 5-10-5 MOE gapmer CTTCCACCAGCTCCACCTGG (e[5mC]*eT*eT*e[5mC]*e[5mC]*dA*d[5mC]*d[5mC]*dA*dG*d[5mC]*dT*d[5mC]*d[5mC]*dA*e[5mC]*e[5mC]*eT*eG*eG) | false |
| ISIS 349496: 5-10-5 MOE gapmer ACAGAATGTTGCTGGTCTGG (eA*e[5mC]*eA*eG*eA*dA*dT*dG*dT*dT*dG*d[5mC]*dT*dG*dG*eT*e[5mC]*eT*eG*eG) | false |
| ISIS 349459: 5-10-5 MOE gapmer CTTCTCGCCCGTGATATCTG (e[5mC]*eT*eT*e[5mC]*eT*d[5mC]*dG*d[5mC]*d[5mC]*d[5mC]*dG*dT*dG*dA*dT*eA*eT*e[5mC]*eT*eG) | false |
| ISIS 349490: 5-10-5 MOE gapmer CCTCTTGGAAGATTTCCTGG (e[5mC]*e[5mC]*eT*e[5mC]*eT*dT*dG*dG*dA*dA*dG*dA*dT*dT*dT*e[5mC]*e[5mC]*eT*eG*eG) | false |
